assay_system: HRgpA-6H (Porphyromonas gingivalis) (UniProt P28784)
protocol_text: ELISA, FASEBA Fab on coated HRgpA-6H
In this section we review reported Ratio OD(Variant)/OD(WT) values for a set of binders.
I'd appreciate a reply containing only the number, no unit.

1. KB001 mouse Fab VL S27Y (Fab, V domains shown) VH: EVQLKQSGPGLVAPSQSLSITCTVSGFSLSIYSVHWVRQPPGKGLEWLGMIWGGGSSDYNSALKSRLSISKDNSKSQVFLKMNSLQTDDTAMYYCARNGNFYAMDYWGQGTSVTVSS VL: QIVLTQSPAIMSASLGERVTMTCTASYSVSSSFLHWYQQKPGSSPQLWIYSTSNLASGVPARFSGSGSGTSYSLTISSMEAEDAATYYCHQYHHSPYIYTFGGGTKLEIK: 0.822
2. KB001 mouse Fab VL S28K (Fab, V domains shown) VH: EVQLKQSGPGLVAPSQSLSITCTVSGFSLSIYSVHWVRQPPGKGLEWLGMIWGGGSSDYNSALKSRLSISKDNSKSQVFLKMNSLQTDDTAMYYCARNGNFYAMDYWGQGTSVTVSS VL: QIVLTQSPAIMSASLGERVTMTCTASSKVSSSFLHWYQQKPGSSPQLWIYSTSNLASGVPARFSGSGSGTSYSLTISSMEAEDAATYYCHQYHHSPYIYTFGGGTKLEIK: 1.07
3. KB001 mouse Fab VL T24A (Fab, V domains shown) VH: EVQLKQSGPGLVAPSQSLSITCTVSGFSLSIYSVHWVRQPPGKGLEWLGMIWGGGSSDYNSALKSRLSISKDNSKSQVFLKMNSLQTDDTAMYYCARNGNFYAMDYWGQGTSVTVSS VL: QIVLTQSPAIMSASLGERVTMTCAASSSVSSSFLHWYQQKPGSSPQLWIYSTSNLASGVPARFSGSGSGTSYSLTISSMEAEDAATYYCHQYHHSPYIYTFGGGTKLEIK: 0.984
4. KB001 mouse Fab VL S26G (Fab, V domains shown) VH: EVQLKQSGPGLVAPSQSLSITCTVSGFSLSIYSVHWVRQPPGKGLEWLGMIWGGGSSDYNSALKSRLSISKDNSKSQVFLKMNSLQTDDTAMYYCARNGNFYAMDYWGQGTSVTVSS VL: QIVLTQSPAIMSASLGERVTMTCTAGSSVSSSFLHWYQQKPGSSPQLWIYSTSNLASGVPARFSGSGSGTSYSLTISSMEAEDAATYYCHQYHHSPYIYTFGGGTKLEIK: 0.932

Please turn your attention to the following entry.
// query Read the entry KB001 mouse Fab VL S30F (Fab, V domains shown) VH: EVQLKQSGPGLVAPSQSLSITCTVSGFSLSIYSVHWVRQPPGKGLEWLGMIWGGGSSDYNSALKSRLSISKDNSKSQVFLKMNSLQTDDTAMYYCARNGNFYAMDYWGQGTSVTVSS VL: QIVLTQSPAIMSASLGERVTMTCTASSSVFSSFLHWYQQKPGSSPQLWIYSTSNLASGVPARFSGSGSGTSYSLTISSMEAEDAATYYCHQYHHSPYIYTFGGGTKLEIK and write its reported Ratio OD(Variant)/OD(WT).
// result 1.06
